# tgt: T1, human CD276 protein (human, UniProt Q5ZPR3 29-534)
# T1 sequence (looked up): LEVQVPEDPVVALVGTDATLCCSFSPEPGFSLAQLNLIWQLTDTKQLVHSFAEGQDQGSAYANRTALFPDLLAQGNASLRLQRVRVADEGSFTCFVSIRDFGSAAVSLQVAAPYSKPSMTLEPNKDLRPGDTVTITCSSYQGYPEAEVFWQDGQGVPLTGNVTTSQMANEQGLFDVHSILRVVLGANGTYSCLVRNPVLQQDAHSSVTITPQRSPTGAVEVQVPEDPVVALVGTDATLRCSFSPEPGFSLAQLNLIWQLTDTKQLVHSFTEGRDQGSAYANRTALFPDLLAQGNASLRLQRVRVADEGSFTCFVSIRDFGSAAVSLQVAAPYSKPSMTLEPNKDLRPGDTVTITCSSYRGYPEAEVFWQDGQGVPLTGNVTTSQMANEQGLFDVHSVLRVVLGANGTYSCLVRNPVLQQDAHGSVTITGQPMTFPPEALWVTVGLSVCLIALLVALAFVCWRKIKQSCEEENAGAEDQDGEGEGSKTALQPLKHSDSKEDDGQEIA
# measurement_description: cell-based or functional assay
experimental_readout: Top cytotoxicity (%), CDC
Numbers only, in %.

[
  {
    "binder": "25-D3-G4-C6 (human IgG1 chimeric antibody) (antibody, V domains shown, human IgG1 chimeric antibody of the mouse clone) VH: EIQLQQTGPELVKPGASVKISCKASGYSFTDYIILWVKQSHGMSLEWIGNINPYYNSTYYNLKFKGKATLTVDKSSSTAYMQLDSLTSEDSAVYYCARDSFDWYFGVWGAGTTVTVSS VL: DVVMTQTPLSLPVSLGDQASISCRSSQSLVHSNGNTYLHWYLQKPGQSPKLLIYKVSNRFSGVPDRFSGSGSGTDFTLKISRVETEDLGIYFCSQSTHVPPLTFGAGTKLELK",
    "output_unit": "%",
    "quantitative_result": 89.7
  }
]

Answer for every listed entry: what is its Top cytotoxicity (%), CDC? The entries follow.
1. 6-D8-E7-A11 (human IgG1 chimeric antibody) (antibody, V domains shown, human IgG1 chimeric antibody of the mouse clone) VH: QVHLQQPGAELVKPGASVKLSCKASGYTFTNYWMHWVKRRPGQGLEWIGMIHPNSGTTSFNEKFKSKATLTVDKSSSTAYMQLSSLTSEDSAVYYCAGYYGSSFSWFTYWGQGTLVTVSA VL: QAVVTQESALTTSPGGTVILTCRSSTGAVTTSNFANWVQEKPDHLFTGLIGGTSNRAPGVPVRFSGSLIGDKAALTITGAQTEDDAMYFCALWYSTHYVFGGGTKVTVL
2. 7-E1-F8-F6 (human IgG1 chimeric antibody) (antibody, V domains shown, human IgG1 chimeric antibody of the mouse clone) VH: QVQLQQSGPELVKPGASVQMSCKASGYTFTDYVISWVNQRTGQGLEWIGEIYPRSGNTYYNEKFKGKATLTADKSSNTAYMQLSSLTSEDSAVYFCARFDIAYSFDYWGQGTTLTVSS VL: DVVMTQTPLSLPVSLGDQASISCRSTQSLVHSNGVTYLHWYLQKPGQSPKLLIYKVSNRFSGVPDRFSGSGSGTDFTLKISRVEAEDLGVYFCSQGTHVPWTFGGGTKLEIK

Response given:
[92.5, 91.9]
